Below: a set of entries, each annotated with reported IC50.
- assay_target: E3 ubiquitin-protein ligase CBL-B (Homo sapiens)
- Sequence (Q13191 whole entry, the tested form may be a part): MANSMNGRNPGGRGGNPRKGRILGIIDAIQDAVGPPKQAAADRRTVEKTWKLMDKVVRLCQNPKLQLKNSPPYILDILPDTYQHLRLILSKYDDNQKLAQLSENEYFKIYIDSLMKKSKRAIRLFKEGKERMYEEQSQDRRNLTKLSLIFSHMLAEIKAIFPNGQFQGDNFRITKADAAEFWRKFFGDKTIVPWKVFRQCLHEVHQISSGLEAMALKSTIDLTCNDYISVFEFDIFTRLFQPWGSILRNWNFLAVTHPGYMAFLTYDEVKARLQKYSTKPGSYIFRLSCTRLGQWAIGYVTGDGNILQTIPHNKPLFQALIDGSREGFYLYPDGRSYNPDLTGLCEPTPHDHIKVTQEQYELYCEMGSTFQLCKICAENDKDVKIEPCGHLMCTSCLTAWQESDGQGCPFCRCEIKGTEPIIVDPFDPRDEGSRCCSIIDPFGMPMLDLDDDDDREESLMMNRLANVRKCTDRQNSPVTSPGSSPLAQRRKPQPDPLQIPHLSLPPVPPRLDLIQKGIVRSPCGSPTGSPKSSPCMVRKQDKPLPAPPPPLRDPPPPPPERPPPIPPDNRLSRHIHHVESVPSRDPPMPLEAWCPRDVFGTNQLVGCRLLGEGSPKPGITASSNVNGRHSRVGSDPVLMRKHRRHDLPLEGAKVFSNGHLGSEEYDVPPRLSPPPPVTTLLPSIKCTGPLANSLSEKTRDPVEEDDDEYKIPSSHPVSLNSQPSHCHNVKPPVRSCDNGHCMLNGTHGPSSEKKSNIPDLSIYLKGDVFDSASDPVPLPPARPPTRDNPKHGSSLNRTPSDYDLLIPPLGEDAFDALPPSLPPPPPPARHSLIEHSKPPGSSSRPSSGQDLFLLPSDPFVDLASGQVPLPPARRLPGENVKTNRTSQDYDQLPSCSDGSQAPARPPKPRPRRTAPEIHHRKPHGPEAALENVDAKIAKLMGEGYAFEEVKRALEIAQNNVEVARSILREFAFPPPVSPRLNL
- protocol_summary: Inhibition of biotinylated recombinant Cbl-b (36 to 427 residues)(unknown origin) expressed in Escherichia coli BL21(DE3) measured for 1 hr by TR-FRET assay

Worked examples follow.
# chemical_string, assay_target, IC50
measured = [
    ("Cn1cnnc1C(F)(F)[C@](C)(F)c1cccc(NC(=O)N2CC3(CNC3)Oc3cccnc32)c1", "E3 ubiquitin-protein ligase CBL-B (Homo sapiens)", "< 100 nM"),
    ("C[C@H]1CCCN(Cc2cc(C(F)(F)F)c3[nH]c(-c4cccc([C@]5(c6nncn6C)C[C@@H](C)C5)c4)nc3c2)C1", "E3 ubiquitin-protein ligase CBL-B (Homo sapiens)", "< 200 nM"),
    ("C[C@H](Cc1nncn1C)c1cccc(-c2n[nH]c3c(CN4CC[C@H](F)C4)cc(C(F)(F)F)nc23)c1", "E3 ubiquitin-protein ligase CBL-B (Homo sapiens)", "< 100 nM"),
]

API: the following record is the query input.
Q. If you can, please state the reported IC50 value of Cn1cnnc1[C@]1(c2cccc(-n3cc4c(C(F)(F)F)cc(CN5CCC6(CC6)C5)cn4c3=O)c2)C[C@H](C)C1 .
A. < 100 nM

All figures here come from ChEMBL document CHEMBL5550096.
